System: Mycobacterium tuberculosis
Assay: Antimycobacterial activity against Mycobacterium tuberculosis H37Rv ATCC 27294 assessed as inhibition of bacterial cell growth incubated for 7 days by resazurin microtiter assay
Type: functional
Conditions: H37Rv ATCC 27294, 168 h
So basically: is MIC under 4 µM? Then yes (1). Not under? Then no (0).

>  <smiles_string>
COC(=O)/C=C1\Nc2ccccc2OC1=O

>  <target>
Mycobacterium tuberculosis

>  <assigned_class>
no (0)

$$$$
>  <smiles_string>
O=C1Oc2ccccc2N/C1=C\C(=O)N1CCOCC1

>  <target>
Mycobacterium tuberculosis

>  <assigned_class>
no (0)

$$$$
>  <smiles_string>
COC(=O)/C=C1\Nc2cc(Cl)ccc2OC1=O

>  <target>
Mycobacterium tuberculosis

>  <assigned_class>
no (0)

$$$$
>  <smiles_string>
O=C1Oc2ccccc2N/C1=C\C(=O)c1cccs1

>  <target>
Mycobacterium tuberculosis

>  <assigned_class>
no (0)

$$$$
>  <smiles_string>
O=C(NNC(=O)c1ccncc1)C(=O)Nc1cc(Cl)ccc1O

>  <target>
Mycobacterium tuberculosis

>  <assigned_class>
yes (1)

$$$$
>  <smiles_string>
O=C(NNC(=O)c1ccncc1)C(=O)Nc1ccc(Cl)cc1O

>  <target>
Mycobacterium tuberculosis

>  <assigned_class>
yes (1)

$$$$
>  <smiles_string>
NNC(=O)c1ccncc1

>  <target>
Mycobacterium tuberculosis

>  <assigned_class>
yes (1)

$$$$
>  <smiles_string>
O=C(NNC(=O)c1ccncc1)C(=O)Nc1ccccc1O

>  <target>
Mycobacterium tuberculosis

>  <assigned_class>
yes (1)

$$$$
>  <smiles_string>
O=C1Oc2ccccc2N/C1=C\C(=O)c1c[nH]c2ccccc12

>  <target>
Mycobacterium tuberculosis

>  <assigned_class>
yes (1)

$$$$
